Each recorded value in this set is attributed to patent US20260373248A1.

Tested on: firefly luciferase
EXPERIMENTAL_PROTOCOL: In vivo firefly luciferase expression after intravenous injection of fLuc mRNA delivery vehicles (IVIS imaging)
Set-up: species or system female Balb/c mice
MEASUREMENT_CONTEXT: formulation recipe R5; fLuc mRNA, intravenous, Balb/c mice
Non-standard residues stand in square brackets, D forms with d. Residues, ends and D or L forms follow the SMILES beside them. *: point of attachment. Gly(N-(3-decanoyloxypropyl)) = CCCCCCCCCC(=O)OCCCNCC(=O)O; N(2-decanoyloxyethyl)Gly = CCCCCCCCCC(=O)OCCNCC(=O)O; Gly(N-3-morpholinopropyl) = O=C(O)CNCCCN1CCOCC1; N(2-ethylhexyl)Gly = CCCCC(CC)CNCC(=O)O; N(CH(CH2OH)2)Gly = O=C(O)CNC(CO)CO; N(octyl)Gly = CCCCCCCCNCC(=O)O; For = O=C*
ASSAY_METRIC: Total Flux (luciferase expression) (p/s)

- COMPOUND: "CCCCCCCCCC(=O)OCCN(CC(=O)N(CCOC(=O)CCCCCCCCC)CC(=O)N(CC(=O)N(CCOC(=O)CCCCCCCCC)CC(=O)N(CCOC(=O)CCCCCCCCC)CC(=O)N(CC(N)=O)CC(CC)CCCC)CC(CC)CCCC)C(=O)CN(C=O)CCCN1CCOCC1 (centres unmarked) [Compound 76] (For-[Gly(N-3-morpholinopropyl)][N(2-decanoyloxyethyl)Gly][N(2-decanoyloxyethyl)Gly][N(2-ethylhexyl)Gly][N(2-decanoyloxyethyl)Gly][N(2-decanoyloxyethyl)Gly][N(2-ethylhexyl)Gly]-NH2)"
  RESULT_VALUE: "1.00E+09"
- COMPOUND: "CCCCCCCCCC(=O)OCCCN(CC(=O)N(CC(N)=O)CC(CC)CCCC)C(=O)CN(CCCCCCCC)C(=O)CN(CC(CC)CCCC)C(=O)CN(CCCOC(=O)CCCCCCCCC)C(=O)CN(CCCCCCCC)C(=O)CNC(CO)CO (centres unmarked) [Compound 32] (H-[N(CH(CH2OH)2)Gly][N(octyl)Gly][Gly(N-(3-decanoyloxypropyl))][N(2-ethylhexyl)Gly][N(octyl)Gly][Gly(N-(3-decanoyloxypropyl))][N(2-ethylhexyl)Gly]-NH2)"
  RESULT_VALUE: "5.34E+08"
